# Test system: XF498
# Assay Protocol: NCI tumour cell line growth inhibition, 48 h
Active and inactive are the calls of the source. Rule as the data show it: active = GI50 up to about 1.1 µM and inactive = higher.
GI50 listing for selected molecules.

INSERT INTO assay_data (molecule, property_measured, result) VALUES
  ('C=C1C(=O)O[C@@H]2C[C@]3(C)[C@@H](C[C@H]12)[C@](C)(O)CC[C@@H]3O', 'GI50', '36.5 µM (inactive)');

Now consider the entry below.
**Query** Given the molecule CCCCCCCCCCCC(=O)OC[C@H](C[As](=O)(O)O)OC(=O)CCCCCCCCCCC , what is its reported GI50?
**Result** 10.1 µM (inactive)

###

# Test system: U-251
# Assay Protocol: NCI tumour cell line growth inhibition, 48 h
Calls of active or inactive are those of the source. No stated cut-off is given here; in the data, active = GI50 up to about 1.1 µM and inactive = higher.
Response enum: yes (1) = active, no (0) = inactive

INSERT INTO results (compound, category) VALUES
  ('CCOC(=O)Cc1csc2[n+]1C(=O)/C(=C\c1cccc(Cl)c1Cl)S2', 'no (0)'),
  ('Cc1ccc(OCC2OC(C#N)C(Oc3ccc(C)cc3)C2Oc2ccc(C)cc2)cc1 (centres undefined)', 'no (0)'),
  ('CN1Cc2cc(O)c(O)cc2C(O)C1 (centres undefined)', 'no (0)');

**Query** // return assay outcome for CSc1ccc(-c2cc(-c3nc4ccccc4[nH]3)nc3[nH]c(-c4nc5ccccc5[nH]4)cc(=O)c23)cc1
**Result** no (0)

**Query** Could you please tell me the result logged for Cc1ccccc1-n1c(=O)c2ncn(CCCl)c2n(-c2ccccc2C)c1=S in this assay?
**Result** no (0)

**Query** Which outcome was assigned to COc1cc(C2C3=C(CCC3=O)Oc3cc4c(cc32)OCO4)cc(OC)c1OC (centres undefined) in this test?
**Result** yes (1)

**Query** Could you please tell me the result logged for CN(C)CCCOC(=O)C(O)(Cc1ccccc1)C1CC1 (centres undefined) in this assay?
**Result** no (0)

**Query** In this assay, the call recorded for O=C(O)C(CS)Nc1c2ccccc2nc2ccccc12 (centres undefined) was what?
**Result** no (0)

**Query** Returns: the outcome recorded for ClC1=NN=C(c2c[nH]c3ccccc23)CC1NCc1ccccc1 (centres undefined) in this assay.
**Result** no (0)

**Query** Returns: the outcome recorded for COc1cc2nc(Nc3cccc(Br)c3)nc(Nc3cccc(Br)c3)c2cc1OC in this assay.
**Result** no (0)

**Query** Hi, sorry to bother you, what did the test record for C/C(=N\N(C)C)c1sc(-n2nc(-c3ccccc3)cc2-c2ccccc2)nc1C ?
**Result** no (0)

**Query** Tell me the assay call for C=C1C(=O)O[C@@H]2C[C@]3(C)[C@@H](C[C@H]12)[C@](C)(O)CC[C@@H]3O please.
**Result** no (0)

**Query** Hi, sorry to bother you, what did the test record for CC[C@@H](/C=C\CCC1(C[C@H](O)CCC=C(C)C)OCCO1)O[Si](C(C)C)(C(C)C)C(C)C ?
**Result** no (0)

**Query** Tell me the assay call for CN(C)CCOc1ccc(I)cc1Cc1ccccc1 please.
**Result** no (0)
